# system.name: T1, biotinylated human H202D GDF-15 variant (human, UniProt Q99988 197-308, biotinylated, sites not stated)
# T1 construct: also called Human GDF-15 H202D
# T1 chain: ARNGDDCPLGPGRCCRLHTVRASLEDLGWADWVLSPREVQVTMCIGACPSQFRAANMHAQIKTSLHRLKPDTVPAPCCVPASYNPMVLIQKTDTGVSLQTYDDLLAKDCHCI
# assay.remarks: HTRF binding assay, biotinylated antigen, titration of antibody
measure.name: binding result

# annotated cases, reported binding result shown
# binder, measure.name, measured
records = [
    ("AB1170069 (antibody, V domains shown) VH: QVQLQQSGPELVKPGASVKLSCKASGYTFTSYDINWVKQRPGQGLEWIGWIYPRDGISKYNEKFEGKATLTVDTSSSTAYMELHSLTSEDSAVYFCAGTSDPAYFDYWGQGTTLTVSS VL: DIVLTQSPATLSVTPGDRVSLSCRASQSISYYLHWYQQKSHESPRLLIKYASQSISGIPSRFSGSGSGTDFTLSINSVETEDFGMYFCQQSNSWPYTFGGGTKLEIK", "binding result", "binds"),
    ("AB1170072 (antibody, V domains shown) VH: QVTLKESGPGILQPSQTLSLTCSFSGFSLSTYGMGVGWIRQPSGKGLEWLANIWWNDDKYYNSALKSRLTISKDTSNNQVFLKISSVDTADTATYYCAQMAYSWFAYWGQGTLVTVSS VL: DIVMTQSQKFMSTSVGDRVSVTCKASQNMDTNVAWYQQKPGQSPKALIYSASYRYSGVPDRFTGSGSGTDFTLTISNVQSEDLAEYFCQQYNSYPFTFGSGTKLEIK", "binding result", "binds"),
    ("AB1170019 (antibody, V domains shown) VH: EVQLQQSGPELVKPGASVKIPCKASGYTFTDYNMDWVKQSHGKSLEWIGDINPNNGGTFYNQKFKDKATLTVDKSSSTAYMELRSLTSEDTAVYYCAREEKLYFGLMDYWGQGTSVTVSS VL: DIQMTQSPASLSASVGETVTITCRASENIYSYLAWYQQKQGKSPQLLVYNAKTLAEGVPSRFSGSGSGIQFSLKINILQPEDFGNYYCQHQYGSPPTFGGGTKLEIK", "binding result", "binds"),
    ("AB1170086 (antibody, V domains shown) VH: QVTLKESGPGILQSSQTLSLTCSFSGFSLSTSGMGVSWIRQPSGKGLEWLAHIYWDDDKRYNPSLESRLTISKDTSRNQVFLKITSVDTTDTATYYCARGGYDGYYDYWGQGTTLTVSS VL: DVVMTQTPLSLPVSLGDQASISCRSSQSIVHSNGNTNLEWYLQKPGQSPKLLIYKVSNRLSGVPDRFSGSGSGTDSTLKISRVEAEDLGVYYCFQGSHVRTFGGGTKLEIK", "binding result", "binds"),
]

Now examine the next entry.
Can you share its binding result? I mean this binder: AB1170073 (antibody, V domains shown) VH: QVTLKESGPGILQPSQTLSLTCSFSGFSLSTFGMGVGWIRQPSGKGLEWLAHIWWDDDKYYNPALKSRLTISKDTSKNQVFLKIANVDTADTATYYCARIAYDGYLDYWGQGTTLTVSS VL: DIVMTQSQKFMSTSVGDRVSVTCKASQNVGTDVAWYQQKPGQSPKSLIYSASYRYSGVPDRFTGSGSGTDFTLTISNVQSEDLAEYFCQQYNSYPYTFGGGTKLEIK binds
